# specificity ELISA, fold over background per entry
Target: T1, Acro COVID S1 (S1N-C82E8) (SARS-CoV-2, UniProt P0DTC2 16-685)
T1 construct: domain: S1 (subunit 1)
Assay: phage ELISA
The reply should be a number in fold over background, with the unit left off.

Some entries whose results are on file:
BINDER | specificity ELISA, fold over background [fold over background]
SARS-CoV-2 variant 1-9 (antibody, V domains shown) VH: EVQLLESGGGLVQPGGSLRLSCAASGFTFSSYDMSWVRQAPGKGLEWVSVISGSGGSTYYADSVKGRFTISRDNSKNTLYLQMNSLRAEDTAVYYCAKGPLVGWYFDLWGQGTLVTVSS VL: QSALTQPASVSGSPGQSITISCTGTSSDVGDYNLVSWYQQHPGKAPKLMIYEGSNRPSGVSNRFSGSKSGNTASLTISGLQAEDEADYYCCSYAGSSSFVVFGGGTKLTVL | 10.7
SARS-CoV-2 variant 1-7 (antibody, V domains shown) VH: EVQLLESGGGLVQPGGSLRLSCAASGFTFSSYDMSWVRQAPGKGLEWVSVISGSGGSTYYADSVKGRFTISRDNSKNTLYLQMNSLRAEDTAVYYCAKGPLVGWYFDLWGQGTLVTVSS VL: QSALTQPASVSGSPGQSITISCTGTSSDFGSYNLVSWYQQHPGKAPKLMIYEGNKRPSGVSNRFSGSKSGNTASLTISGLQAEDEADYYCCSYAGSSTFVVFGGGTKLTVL | 6.8

Turning now to a further record.
Query string: Name the recorded specificity ELISA, fold over background of the binder listed here: SARS-CoV-2 variant 1-37 (antibody, V domains shown) VH: EVQLLESGGGLVQPGGSLRLSCAASGFTFTSYAMNWVRQAPGKGLEWVTAISGSGGSTFYADSVKGRFTISRDNSKNTLYLQMNSLRAEDTAVYYCTRPPYGDYGDYWGQGTLVTVSS VL: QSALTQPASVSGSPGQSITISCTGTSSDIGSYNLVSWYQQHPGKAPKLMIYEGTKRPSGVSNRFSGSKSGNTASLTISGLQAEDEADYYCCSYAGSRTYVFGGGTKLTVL
Result string: 11.6
